List of pIC50 tested on HsMetAP1 (Homo sapiens, UniProt P53582).
pIC50: −log10 of the molar value.
measure.name: pIC50

>>> val("O=C(N/N=C/c1c(O)ccc2ccccc12)c1ccncc1 [drawing 22]")
3.50
>>> val("O=C(N/N=C/c1c(O)ccc2ccccc12)c1ccncc1 [Compound 1]")
3.50

* * *

assay: Pharmacokinetic study in male Sprague Dawley rats; assay type: in vivo; settings: male, Sprague Dawley, rat, plasma, sc, 10 mg/kg, Subcutaneous (Dose: 10 mg/kg), two compartment model, read-out: T1/2α (distribution half-life) (converted)
measure.name: half-life (h)

>>> val("Oc1c(Br)cc(Cl)c2cccnc12 [Compound 5, 7-bromo-5-chloroquinolin-8-ol]")
1.66

These entries and their values trace back to patent US20170304288A1.
